A collection of molecules and their measured Euclidean distance
- Tested on: A549
- experiment notes: Euclidean distance of Cell Painting phenotypic profile (signed KS, 77 features) to DMSO centroid (dimensionless distance); 5 or 10 uM (library dependent); higher = stronger phenotypic change vs DMSO (phenoactivity)
- applied conditions: 48 h
Where a name gives a salt, the structure may show the parent alone.
Just the number, please, no unit after it.

{"molecule": "Cc1ccc(-c2nc(N)nc3c2nnn3Cc2cccc(CO[C@H]3CCOC3)n2)o1", "reported measurement": 0.446}
{"molecule": "O=C(OCC(O)CO)c1ccccc1Nc1ccnc2cc(Cl)ccc12 (stereo not drawn) [Glafenine HCl]", "reported measurement": 0.79}
{"molecule": "CS(=O)(=O)c1cccc(CNc2nc(Nc3ccc4c(c3)CCC(=O)N4)ncc2C(F)(F)F)c1", "reported measurement": 2.6}

Given the entry "COc1ccc(Cl)cc1NC(=O)Nc1cc(C)nc2ccccc12" , what Euclidean distance was observed with A549?
1.85

Give A549 Euclidean distance for "CN(C)Cc1cccc(N/C(=C2\C(=O)Nc3cc(C(N)=O)ccc32)c2ccccc2)c1"
1.06

Lab note: need Euclidean distance with A549 for entry c1ccc(CN(CC2=NCCN2)c2ccccc2)cc1 [Antazoline HCl] , please look it up.
0.647

Which measured Euclidean distance belongs to "Cn1c(N2CCCCS2(=O)=O)nc(C(=O)NCc2ccc(F)cc2)c(O)c1=O" , tested on A549?
2.86

Please tell me: Euclidean distance of "CC1(N)CCN(c2cccnc2NC(=O)c2nc(-c3ncccc3C(F)(F)F)cnc2N)CC1" , system A549?
2.64

Test system A549; read-out Euclidean distance; what value for CC1=C[C@H](O)CC(C)(C)[C@H]1/C=C/C(C)=C/C=C/C(C)=C/C=C/C=C(C)/C=C/C=C(C)/C=C/C1=C(C)C[C@@H](O)CC1(C)C [lutein] ?
0.452

# query: Euclidean distance | item CCN1C(=O)NC(c2ccccc2)C1=O (stereo not drawn) [Ethotoin] | system: A549
0.725

What Euclidean distance appears in the records for this molecule with A549? CNCCCC1c2ccccc2C=Cc2ccccc21 [Protriptyline hydrochloride]
0.784

====

- Test system: DU145
- experiment notes: Euclidean distance of Cell Painting phenotypic profile (signed KS, 77 features) to DMSO centroid (dimensionless distance); 5 or 10 uM (library dependent); higher = stronger phenotypic change vs DMSO (phenoactivity)
- applied conditions: 48 h
assay readout: Euclidean distance
A bare number is all that is needed in reply.

Known results for molecules:
{"molecule": "C=CCc1ccc(O)c(OC)c1", "Euclidean distance": 0.897}
{"molecule": "CC(C(=O)O)c1cccc(C(=O)c2ccccc2)c1 (stereo not given)", "Euclidean distance": 2.29}
{"molecule": "COC(c1ccccc1)(c1ccccc1)[C@H](Oc1nc(C)cc(C)n1)C(=O)O", "Euclidean distance": 1.17}
{"molecule": "CC(=O)O[C@H]1C[C@@]2(C)[C@@H](C[C@@H](O)[C@H]3[C@@]4(C)CC[C@@H](O)[C@@H](C)[C@@H]4CC[C@@]32C)/C1=C(\\CCC=C(C)C)C(=O)O", "Euclidean distance": 0.822}

Attention now shifts to the item below.
Requested read-out: Euclidean distance. Entry: CCCC(C)NC(=O)c1ccc(Cl)c(Cl)c1 (stereo not given)
0.911

====

- Tested on: OVCAR4
- experiment notes: Euclidean distance of Cell Painting phenotypic profile (signed KS, 77 features) to DMSO centroid (dimensionless distance); 5 or 10 uM (library dependent); higher = stronger phenotypic change vs DMSO (phenoactivity)
- applied conditions: 48 h
Where a name gives a salt, the structure may show the parent alone.
assay readout: Euclidean distance
Keep it simple and answer with nothing but the number.

{"compound": "CCn1c(N)c(C(=O)NC)c(=O)c2ccc(C#CC(C)(O)COC)nc21 (centres undefined)", "Euclidean distance": 0.668}

Could you tell me which Euclidean distance is on file for CCN(c1cc(-c2ccc(CN3CCOCC3)cc2)cc(C(=O)NCc2c(C)cc(C)[nH]c2=O)c1C)C1CCOCC1 [Tazemetostat (EPZ-6438)] ?
1.16

# query: Euclidean distance of entry CC/C=C(\C(=O)N[C@@H]1C(=O)N2C(C(=O)OCOC(=O)C(C)(C)C)=C(COC(N)=O)CS[C@H]12)c1csc(N)n1 [Cefcapene Pivoxil Hydrochloride]
0.898

Look up Euclidean distance: COc1ccc(COc2cc3oc(=O)c4cc(C(C)O)ccc4c3cc2OC)cc1 (centres undefined)
1.06

====

- Test system: A549
- experiment notes: Euclidean distance of Cell Painting phenotypic profile (signed KS, 77 features) to DMSO centroid (dimensionless distance); 5 or 10 uM (library dependent); higher = stronger phenotypic change vs DMSO (phenoactivity)
- applied conditions: 48 h
Structures can show the parent of a compound that is named as a salt.
# binarize Euclidean distance: threshold 1 inclusive, high side 1 (yes), low side 0 (no)

The following compounds have reported results that may help.
{"compound": "C[C@@H](O)[C@H]1C(=O)N2C(C(=O)[O-])=C(SC3Cn4cnc[n+]4C3)[C@H](C)[C@H]12 (some centres undefined) [Biapenem]", "label": "0 (no)"}
{"compound": "O=C(O)CCC(=O)c1ccc(-c2ccccc2)cc1 [Fenbufen]", "label": "1 (yes)"}
{"compound": "CCOC(=O)c1c(CSc2ccccc2)n(C)c2cc(Br)c(O)c(CN(C)C)c12 [Arbidol HCl]", "label": "1 (yes)"}
{"compound": "C=CC(=O)Nc1cccc(Nc2nc(Nc3ccc(OCCOC)cc3)ncc2F)c1 [Spebrutinib (CC-292. AVL-292)]", "label": "1 (yes)"}
{"compound": "CN1CC2c3ccccc3Oc3ccc(Cl)cc3C2C1 (centres undefined) [Asenapine]", "label": "0 (no)"}

Determine whether measured Euclidean distance meets or exceeds 1 for Nc1ncn([C@H]2C[C@H](O)[C@@H](CO)O2)c(=O)n1 [Decitabine]
1 (yes)

Entry "COc1cc(N2CCC(N3CCN(C)CC3)CC2)ccc1Nc1ncc(Cl)c(Nc2ccccc2P(C)(C)=O)n1" : is its Euclidean distance no less than 1?
1 (yes)

Quick check: does COc1cc(NS(C)(=O)=O)ccc1Nc1c2ccccc2nc2ccccc12 [Amsacrine hydrochloride] have Euclidean distance greater than or equal to 1?
1 (yes)

====

- System: HEPG2
- experiment notes: Euclidean distance of Cell Painting phenotypic profile (signed KS, 77 features) to DMSO centroid (dimensionless distance); 5 or 10 uM (library dependent); higher = stronger phenotypic change vs DMSO (phenoactivity)
- applied conditions: 48 h
Where a name gives a salt, the structure may show the parent alone.
Listed compounds paired with reported Euclidean distance
Respond using a number only.

Take a look at these entries with their results.
{"compound": "CN1C2CCCC1CC(NC(=O)c1nn(C)c3ccccc13)C2 (stereo not drawn) [Granisetron]", "Euclidean distance": 1}
{"compound": "Cc1ccc(C(=O)Nc2ccc(Oc3cc4cnn(C)c4cc3-c3cn[nH]c3)c(F)c2)c(=O)n1-c1ccc(F)cc1", "Euclidean distance": 2.28}
{"compound": "CN1C[C@@H]2C[C@H]1CN2c1cc2c(cc1F)c(=O)c(C(=O)O)cn2C1CC1 [Danofloxacin Mesylate]", "Euclidean distance": 1.05}
{"compound": "CN1C(=O)/C(=C2/C(=O)Nc3ccccc32)c2ccccc21 [Meisoindigo]", "Euclidean distance": 1.8}
{"compound": "CC(C)Cc1ccc(C(C)C(=O)O)cc1 (stereo not drawn) [Ibuprofen Lysine]", "Euclidean distance": 1.17}

// Euclidean distance lookup, key: CC(=O)O[C@H]1Cc2ccccc2N(C(N)=O)c2ccccc21 [Eslicarbazepine Acetate]
1.17

# input compound: C[C@@H]1CC(=O)NN=C1c1ccc(NN=C(C#N)C#N)cc1 [Levosimendan] ; wanted: its Euclidean distance
0.487

What does the record list as Euclidean distance for CNC(=O)c1ccccc1Sc1ccc2c(/C=C/c3ccccn3)n[nH]c2c1 [Axitinib] ?
2.51

Reported Euclidean distance, compound CC1=C(C(=O)O)N2C(=O)[C@@H](NC(=O)[C@H](N)C3=CCC=CC3)[C@H]2SC1 [Cephradine monohydrate] : ____
0.698

// Euclidean distance lookup, key: CCOC(=O)c1ccc(N)cc1 [Benzocaine hydrochloride]
0.264

====

Catalogue of compounds with associated Euclidean distance
- System: DU145
- experiment notes: Euclidean distance of Cell Painting phenotypic profile (signed KS, 77 features) to DMSO centroid (dimensionless distance); 5 or 10 uM (library dependent); higher = stronger phenotypic change vs DMSO (phenoactivity)
- applied conditions: 48 h
Counter-ions that a name gives are not always drawn.
Form: value (number only, do not type unit).

Look at this compound and give its reported Euclidean distance. "CC[C@H]1OC(=O)[C@H](C)[C@@H](O[C@H]2C[C@@](C)(OC)[C@@H](O)[C@H](C)O2)[C@H](C)[C@@H](O[C@@H]2O[C@H](C)C[C@H](N(C)C)[C@H]2O)[C@](C)(O)C[C@@H](C)CN[C@H](C)[C@@H](O)[C@]1(C)O"
0.734

Requested field: Euclidean distance. Item: "O=C(Nc1cccc2c(=O)cc(-c3nnn[nH]3)oc12)c1ccc(OCCCCc2ccccc2)cc1"
0.906

Quick one: Euclidean distance for Cc1nc2c([nH]1)-c1ccccc1N(C(=O)c1ccc(NC(=O)c3ccccc3-c3ccccc3)cc1)CC2 [Conivaptan HCl] ?
1.42

// lookup Euclidean distance for "NC1=N[C@@]2(c3cc(NC(=O)c4ccc(F)cn4)ccc3F)COC[C@H]2CS1"
1.47

What does the data say about its Euclidean distance? Entry: "O=C1C[C@@H](c2ccc(O[C@@H]3O[C@H](CO)[C@@H](O)[C@H](O)[C@H]3O)cc2)Oc2cc(O)ccc21"
0.781

// returns reported Euclidean distance for input O=C(O)C(O)C(O)C(=O)O (stereo not drawn)
0.848

Reported Euclidean distance, compound "Cc1c(Cl)cccc1Nc1ccccc1C(=O)O" : ____
0.762

For the compound shown here, "O=C(O)c1ccccc1OP(=O)(O)O" , give the reported Euclidean distance.
0.86

All values here come from the supplement of paper PMC10127200.
